Assay: Rat liver microsomes stability
Assay type: in vitro ADME
Details: rat liver microsomes, Without Cofactors, 30 min
Below, each entry is listed with its recorded Remaining Percentage (%).
Outcome measure: Remaining Percentage (%)

| Compound | Outcome measure | Readout unit | Readout value |
| --- | --- | --- | --- |
| CN(C)CCc1c[nH]c2ccc(OCCOC(F)F)cc12 | Remaining Percentage (%) | % | 70.92 |
| COc1ccc2[nH]cc(CCN3CC[C@@H](OC(F)F)C3)c2c1 [(R) I-67] | Remaining Percentage (%) | % | 91.21 |
| COc1ccc2[nH]cc(CCN(C)CCOC(F)F)c2c1 | Remaining Percentage (%) | % | 96.79 |
| CN(CCOC(F)F)CCc1c[nH]c2ccccc12 | Remaining Percentage (%) | % | 105.21 |
| O=C(O)Cc1ccccc1Nc1c(Cl)cccc1Cl | Remaining Percentage (%) | % | 102.19 |
| COc1ccc2[nH]cc(CCN3CC[C@@H](OC)C3)c2c1 [(R) I-66] | Remaining Percentage (%) | % | 102.61 |
| COc1ccc2[nH]cc(CCN(C)C)c2c1 | Remaining Percentage (%) | % | 49.55 |
| COc1ccc2[nH]cc(CCN3CC[C@H](OC(F)F)C3)c2c1 [(S) I-67] | Remaining Percentage (%) | % | 99.06 |
